# tested.target: canine FcRn (FcRn large subunit with canine beta-2-microglobulin) (canine)
# protocol.summary: SPR pH 7.4, FcRn coupled at high density, IgG 400 nM
As shown below, each of these binders has a reported pKd value.
Just the number, please; pKd means minus log10 of the concentration in mol/L.

binder: anti-NGF canine IgGB antibody, Fc variant N434R + D312P (antibody, part only; not given: anti-NGF variable domains and light chain, not shown: another chain or arm of the molecule) Fc: APEMLGGPSVFIFPPKPKDTLLIARTPEVTCVVVDLDPEDPEVQISWFVDGKQMQTAKTQPREEQFNGTYRVVSVLPIGHQPWLKGKQFTCKVNNKALPSPIERTISKARGQAHQPSVYVLPPSREELSKNTVSLTCLIKDFFPPDIDVEWQSNGQQEPESKYRTTPPQLDEDGSYFLYSKLSVDKSRWQRGDTFICAVMHEALHRHYTQESLSHSPGK
pKd: 6.98

From here, focus on the item given below.
Q. Data request, read-out pKd, for anti-NGF canine IgGB antibody, Fc variant A426Y + D312P (antibody, part only; not given: anti-NGF variable domains and light chain, not shown: another chain or arm of the molecule; small tags and cut ends) Fc: APEMLGGPSVFIFPPKPKDTLLIARTPEVTCVVVDLDPEDPEVQISWFVDGKQMQTAKTQPREEQFNGTYRVVSVLPIGHQPWLKGKQFTCKVNNKALPSPIERTISKARGQAHQPSVYVLPPSREELSKNTVSLTCLIKDFFPPDIDVEWQSNGQQEPESKYRTTPPQLDEDGSYFLYSKLSVDKSRWQRGDTFICYVMHEALHNHYTQESLSHSPGK
A. 5.54
